Biological target: T1, serum resistance-associated protein (SRA) from Trypanosoma brucei rhodesiense, recombinant SRA (SEQ ID NO: … (Trypanosoma brucei rhodesiense, UniProt O96637 31-274))
T1 construct: also called SRA protein
T1 sequence: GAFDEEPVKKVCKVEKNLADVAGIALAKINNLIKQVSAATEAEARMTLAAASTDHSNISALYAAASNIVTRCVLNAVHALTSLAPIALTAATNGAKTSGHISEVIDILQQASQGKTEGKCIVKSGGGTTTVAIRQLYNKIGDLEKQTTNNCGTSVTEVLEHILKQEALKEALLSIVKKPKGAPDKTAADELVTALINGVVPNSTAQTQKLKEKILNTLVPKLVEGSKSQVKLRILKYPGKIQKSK
Experiment: SPR, 25C, t1/2 pH 7.4 over pH 4.5
t ½ ratio pH 7.4/pH 4.5 overview
Measured metric: t ½ ratio pH 7.4/pH 4.5

• H1H10041P (antibody, V domains shown, Fully human antibody with human IgG1 Fc (prefix H1H)) VH: QVQLVQSGAEVRKPGSSMKVSCATSGGNFRSYTINWVRQAPGQGLEWMGGVFPAVGTRIYAQKFQGRVTISTDESTTIAYMELNSLVPEDTAVYYCARSFNSPFDFWDQGTLVTVSS VL: AIQMTQSPSSLSASVGDRVTLTCRASQDIRNDLHWFQQTPGKAPRLLIYSASNLQSGVPSRFSGTGSGTDFTLTFSSLQPEDFATYYCLQDYSYPYTFGQGTKLEIK = ≥ 1
• H1H10058P (antibody, V domains shown, Fully human antibody with human IgG1 Fc (prefix H1H)) VH: EVQLVESGGGLVQPGGSLRLSCAASGFTFNDFFMSWVRQAPGKGLEWVANLNQDGSERHYVDSVKGRFTISRDNAKNSLSLQMNSLRVEDTAVYYCAREGGDSWGQGTLVTVSS VL: DIVMTQSPDSLAVSLGERVTINCKSSQSILYSANNKDYLAWFHQKPGQPPKLLIYWASIRESGVPDRISGSGSGTDFTLTISSLQAEDVAVYYCQQYYLFPPTFGQGTKVEIK = ≥ 1
• H2aM10204N (antibody, V domains shown, Chimeric antibody, human variable domains and mouse constant domains (mouse Fc, prefix H2aM); also called H2M10204N) VH: QVHLVQSGAEVKKPGSSVKVSCKASGGTFSNYAISWVRQAPGQGLEWMGGIIPFSGSATYAQNFQGRITITTDESTRTAYMELNGLRSEDTAVYYCARWFSGYGGDFDYWGQGTLVTVSS VL: AIQMTQSPSSLSASVGDRVTITCRASQDIKNDLGWYQQKPGKAPKLLIYAASTLQSGVPSRFSGSGSGTHFTLTLSSLQPEDFATYFCLQDYTFPRTFGQGTKVEIK = ≥ 95
• H1H10069P (antibody, V domains shown, Fully human antibody with human IgG1 Fc (prefix H1H)) VH: QVQLQESGPGLVKPSETLSLTCSVSGGSFTNYYWSWIRQPPGKGLEWIGSVFYSGTTNYNPSLQSRVTLSIETSKNQFSLRLNSVTAADTAVYYCARDQGAAALDYWGQGTLVTVSS VL: DIQMTQSPSTLSASVGDRLTITCRASQSINNWLAWYQQKPGKAPKLLIYKASNLESGVPSRFSGSGSGTEFTLTISNLQPDDFATYYCQQYNSFFLTFGGGTKVEIK = ≥ 2
• H2aM10201N (antibody, V domains shown, Chimeric antibody, human variable domains and mouse constant domains (mouse Fc, prefix H2aM); also called H2M10201N) VH: QVQLLESGGGVVQPGKSLRLSCVASGSIFSIYGMNWVRQAPGKGLEWVASVSSDGSAKFYADSVKGRFTISRDNSNDTLFLQMTSLRAEDTAVYYCAKTLWNYLFDSWGQGTLVTVSS VL: ENVLTQSPDTLSLSPGERATLSCRASQSITSNYLAWYQQKPGQTPRLLISFTSRRATGIPDRFSGSGSGTVFTLTISRLEPEDFAVYYCQQYGTSLTFGGGAKVEIR = 109
